Target: Endothelin receptor type B (Homo sapiens, UniProt P24530)
Sequence (P24530 whole entry): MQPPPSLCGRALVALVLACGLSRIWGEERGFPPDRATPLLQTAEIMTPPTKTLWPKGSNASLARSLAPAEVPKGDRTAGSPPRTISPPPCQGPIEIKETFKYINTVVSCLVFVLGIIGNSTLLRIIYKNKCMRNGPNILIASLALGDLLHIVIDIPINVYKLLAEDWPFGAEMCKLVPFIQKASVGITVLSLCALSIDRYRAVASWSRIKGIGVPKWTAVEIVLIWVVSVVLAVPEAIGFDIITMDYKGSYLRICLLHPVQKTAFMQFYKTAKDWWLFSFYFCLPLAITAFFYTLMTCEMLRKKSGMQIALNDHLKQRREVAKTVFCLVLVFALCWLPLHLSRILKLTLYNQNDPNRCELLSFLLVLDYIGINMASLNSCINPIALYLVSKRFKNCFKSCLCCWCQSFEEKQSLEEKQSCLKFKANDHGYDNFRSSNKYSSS
pIC50: −log10 of the molar value.

structure-smiles	modifier-sign	pIC50
Cc1noc(NS(=O)(=O)c2ccsc2C(=O)Nc2ccc(C(C)(C)C)cc2)c1Br	=	5.16
COc1cccc(NC(=O)c2sccc2S(=O)(=O)Nc2onc(C)c2Br)c1	=	4.20
CC(=O)c1cc2c(cc1NC(=O)c1sccc1S(=O)(=O)Nc1onc(C)c1C)OCO2	<	4.00
Cc1noc(NS(=O)(=O)c2ccsc2C(=O)NCc2ccccc2)c1Br	=	4.01
COc1ccc(NC(=O)c2sccc2S(=O)(=O)Nc2onc(C)c2Cl)c(C)c1	=	4.85
Cc1noc(NS(=O)(=O)c2ccsc2C(=O)Nc2cc3c(cc2OCCO)OCO3)c1Cl	=	4.84
COC(=O)c1cc(OC)c(OC)cc1NC(=O)c1sccc1S(=O)(=O)Nc1onc(C)c1Cl	<	4.00
Cc1ccc(NC(=O)c2sccc2S(=O)(=O)Nc2onc(C)c2C)cc1	=	4.17
Cc1ccc(NC(=O)c2sccc2S(=O)(=O)Nc2onc(C)c2Br)cc1	=	5.04
CC(=O)c1cc2c(cc1NC(=O)c1sccc1S(=O)(=O)Nc1onc(C)c1Cl)OCO2	=	4.49
Cc1noc(NS(=O)(=O)c2ccsc2C(=O)Nc2cc3c(cc2C#N)OCO3)c1Cl	=	4.39
Cc1noc(NS(=O)(=O)c2ccsc2C(=O)Nc2ccccc2C(=O)O)c1Br	=	4.71
COc1ccccc1NC(=O)c1sccc1S(=O)(=O)Nc1onc(C)c1Br	=	4.21
Cc1ccccc1NC(=O)c1sccc1S(=O)(=O)Nc1onc(C)c1Br	<	4.00
Cc1nnc(NC(=O)c2sccc2S(=O)(=O)Nc2onc(C)c2Cl)s1	<	4.00

Data credit: ChEMBL document CHEMBL1130042
